# experimentSummary: in vivo
# conditionDetails: intraperitoneal injection; Table 5
The following compounds are shown together with reported LD50 (mg/kg) by Kerber values.
parameterMeasured: LD50 (mg/kg) by Kerber

• CC1(C)C=Cc2c(nc3ccccc3c2NCc2ccccc2)C1 [VIIh] = 116.7
• CC1(C)C=Cc2c(nc3ccccc3c2NCc2ccccc2)C1 [VIIn] = 125.0
• CC1(C)C=Cc2c(nc3ccccc3c2NCc2ccccc2)C1 [VIIr] = 69.5
• CCCCNc1c2c(nc3ccccc13)CC(C)(C)CC2=O [Vs] = 165.8
• CC1(C)C=Cc2c(nc3ccccc3c2NCc2ccccc2)C1 [VIIf] = 125.0
• CC1(C)C=Cc2c(nc3ccccc3c2NCc2ccccc2)C1 [VIIg] = 200.0
• CC1(C)C=Cc2c(nc3ccccc3c2NCc2ccccc2)C1 [VIIk] = 90.5
